Attribution: paper PMC5431558

Target: MAT2A (S-adenosylmethionine synthase isoform type-2) (Homo sapiens)
Construct: Recombinant human MAT2A (Addgene plasmid #53648), expressed in E. coli BL21 (DE3) Rosetta
Sequence (P31153 whole entry, canonical isoform): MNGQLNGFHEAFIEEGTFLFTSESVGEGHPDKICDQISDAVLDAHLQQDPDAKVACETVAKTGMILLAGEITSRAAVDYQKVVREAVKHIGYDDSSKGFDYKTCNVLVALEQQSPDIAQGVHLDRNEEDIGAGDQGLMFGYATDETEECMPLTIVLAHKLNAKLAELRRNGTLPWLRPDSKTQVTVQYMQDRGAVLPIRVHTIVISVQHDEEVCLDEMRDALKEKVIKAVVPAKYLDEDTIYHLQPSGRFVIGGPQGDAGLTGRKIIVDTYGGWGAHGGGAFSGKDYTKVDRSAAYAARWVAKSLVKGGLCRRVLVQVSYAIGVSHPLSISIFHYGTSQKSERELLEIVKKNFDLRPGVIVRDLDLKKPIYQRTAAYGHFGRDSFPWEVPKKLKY
Assay: MAT2A enzymatic assay with pre-incubation, phosphate colorimetric readout
Readout: IC50 (µM)
Just the number please, in µM, no unit attached.

The recorded IC50 for entry C1N2CN3CN1CP(C2)C3.Cc1ccccc1.[Cl][Ru][Cl] [RAPTA-T] equals 107
